Tested on: Caco-2
Test: cell viability relative to DMSO; higher = less toxic
Conditions: 72 h; 10 nM
Each entry below carries its recorded cell viability.
The response must be a number in % with no trailing unit.

Reference set (4 entries):
cell viability lookup needed for O=C(CCCCC(=O)Nc1c(I)cc(I)c(C(=O)O)c1I)Nc1c(I)cc(I)c(C(=O)O)c1I [iodipamide] , thanks. 106

Next record, please: `CC(Oc1ccc(O)cc1)(P(=O)(O)O)P(=O)(O)O` 98.7

Also, `CCCC(=O)C1(c2ccccc2)CCN(C(=O)[C@@H](Cc2ccc(OC)cc2)NC(=O)[C@@H](N)Cc2cncn2C)CC1` please. 94.9

CCC(C/C=C/c1ccccc1)(c1ccccc1)N(C)CC1CC1 (stereo not given) [igmesine] , same question. 97

Now look at this one.
What measured cell viability goes with `N[C@@H](CC(=O)Nc1ccc(Oc2cc(F)c(F)cc2Br)cc1)C(=O)O` ? 88.1

* * *

Tested on: Caco-2
Assay: cell viability relative to DMSO; higher = less toxic
Details: 72 h; 10000 nM
value type: cell viability (%)
Numbers only here, please. The scale is %.

Completed entries (count: 3):
Look up cell viability: C#Cc1cccc(Nc2ncnc3cc(OC)c(OCCCCCCC(=O)NO)cc23)c1 [CUDC-101] 39.6

Then COc1cc(C[C@@H](CO[C@@H]2O[C@H](CO)[C@@H](O)[C@H](O)[C@H]2O)[C@H](CO[C@@H]2O[C@H](CO)[C@@H](O)[C@H](O)[C@H]2O)Cc2ccc(O)c(OC)c2)ccc1O [secoisolariciresinol-diglucoside] ? 108

Now try Cc1ccnc(NC(=O)C(C)c2cccc(C(=O)c3ccccc3)c2)c1 (centres undefined) [piketoprofen] . 91.5

New cases:
Need cell viability, item FC(F)(F)C(F)(F)C(F)(F)C(F)(F)C(F)(F)C(F)(F)C(F)(F)C(F)(F)Br [perflubron] 91.2

Param item: `COCCOc1ccc2c(c1)ncn2-c1ccc2cccc(N3CCC(N)CC3)c2n1` 90.4

* * *

Test system: HepG2
Assay: cell viability relative to DMSO; higher = less toxic
Settings: 72 h; 10 nM
Entries and their cell viability values follow.
Numeric answer only, unit % assumed.

# get_value(readout='cell viability', item= N#Cc1c[nH]c2c(C(=O)N3CCN(CCc4ccc(F)cc4)CC3)cccc12 [pruvanserin] ) 110

Next up: `COc1cccc(OCCCN)c1-c1cc(Nc2cnc(C#N)cn2)n[nH]1` 97.4

Try this compound next: CCCCCNC(=N)N/N=C/c1c[nH]c2ccc(OC)cc12 [tegaserod] 94

Others:
Quick check: cell viability of CN1C(CSCC(F)(F)F)Nc2cc(Cl)c(S(N)(=O)=O)cc2S1(=O)=O (stereo not drawn) [polythiazide] ? 110

Let us now turn to NC(=O)c1ccc2[nH]ccc2c1 [SD-169] 92.4

Again, but for NC(=O)C[C@H](N)C(=O)O [L-asparagine] 116

Similarly, CC[C@H](C)[C@@H]1NC(=O)[C@H](Cc2ccc(O)cc2)NC(=O)[C@@H](N)CSSC[C@@H](C(=O)N2CCC[C@H]2C(=O)N[C@@H](CC(C)C)C(=O)NCC(N)=O)NC(=O)[C@H](CC(N)=O)NC(=O)[C@H](CCC(N)=O)NC1=O [oxytocin] ? 96.1

Please answer likewise for O=C(O)CCc1cc(C(=O)c2ccc(OC3CCCC3)cc2O)ccc1OCc1ccc2c(O)noc2c1 [T-5224] 93
